Test: Cell viability by resazurin
Type: cell-based
Conditions: mouse
Measured metric: CC50

Return reported CC50; argument: C[C@@H]1C[C@H]2[C@@H]3CCC4=CC(=O)C=C[C@]4(C)[C@@]3(F)[C@@H](O)C[C@]2(C)[C@@]1(O)C(=O)CO [Dexamethasone, reference compound]
> 50 µM

---

Test: Cell viability by resazurin
Type: cell-based
Conditions: mouse, BV-2 microglial cells
Measured metric: CC50 (µM)
Please reply with the bare figure in µM and do not write the unit itself.

Find the recorded CC50 belonging to COc1cc(/C=C/C(=O)c2ccc(OC)c(OC)c2O)cc(OC)c1OC and report it.
18.3
